meta.source: PubChem BioAssay (NCI)

- System: SF-295 CNS
- assaySummary: NCI tumour cell line growth inhibition, 48 h; in the data active = GI50 below about 0.43 µM; inactive = the rest
Outcome codes: active, inactive

# compound, assaySystem, classAssignment
records = [
    ("Cc1ccc2ncnc(N(CC(C)C)CC(C)C)c2c1", "SF-295 CNS", "inactive"),
    ("Oc1ccc(O)c(-c2cn3ccsc3n2)c1", "SF-295 CNS", "inactive"),
    ("CC1COc2c(N3CCN(C)CC3)c(F)cc3c(=O)c(C(=O)O)cn1c23 (configuration not stated)", "SF-295 CNS", "inactive"),
    ("CN(C)c1ccc(N=C2C=CC(=[N+](C)C)C=C2)cc1", "SF-295 CNS", "inactive"),
    ("COc1ccc(C(=O)COC(=O)[C@H](C[Se][Se]C[C@H](NC(=O)c2ccc(Br)cc2F)C(=O)OCC(=O)c2ccc(OC)cc2)NC(=O)c2ccc(Br)cc2F)cc1", "SF-295 CNS", "active"),
    ("NC1CCC(Nc2nc(NCc3ccc(-c4cccs4)nc3)c3ncn(C4CCCC4)c3n2)CC1 (configuration not stated)", "SF-295 CNS", "active"),
    ("CCOC(=O)c1c(C)n2c(=O)cc(C)c3c(O)c(O)cc1c32", "SF-295 CNS", "inactive"),
    ("O=C(/C(=C\\c1ccc([N+](=O)[O-])cc1)S(=O)Cc1ccc(F)cc1)c1ccc(F)cc1 (configuration not stated)", "SF-295 CNS", "inactive"),
    ("Cc1ccc(-c2cc3c(SCC(=O)Nc4cc(C(F)(F)F)ccc4Cl)nccn3n2)cc1", "SF-295 CNS", "inactive"),
    ("CCCCCCCCN(CCCCCCCC)CCCCCCNc1cc(OC)cc2cccnc12", "SF-295 CNS", "inactive"),
    ("COc1ccc(C(=O)c2cc(OC)c(OC)c(OC)c2)cc1/C=C/C(=O)c1ccc(OC)c(OC)c1", "SF-295 CNS", "inactive"),
    ("CC1(C)CCC2=C(O1)c1ccccc1C(=O)C2=O", "SF-295 CNS", "inactive"),
]

---

- System: SF-295 CNS
- assaySummary: NCI tumour cell line growth inhibition, 48 h
recordedMetric: TGI

# molecule, observedResult
records = [
    ("[O-][n+]1ccccc1S", "9.51 µM"),
    ("C=C(C)[C@@]1(OC(=O)c2cc([N+](=O)[O-])cc([N+](=O)[O-])c2)C[C@@H]2CCCC[C@@H]21", "> 100 µM"),
    ("N#Cc1c2c(c(N=P(c3ccccc3)(c3ccccc3)c3ccccc3)n3c1nc1ccccc13)CCCC2", "> 100 µM"),
    ("O=C(O)C[C@H]1CCCCC12CCOC2=O (stereo partly specified)", "> 100 µM"),
    ("Nc1nc(OCc2cc(Br)cs2)c2[nH]cnc2n1", "> 100 µM"),
    ("COc1ccc(OCc2ccc3nc(-c4ccccc4)c(Cl)nc3c2)cc1", "62.1 µM"),
    ("CN(Cc1cc(Br)cc(Br)c1O)Cc1cc(Br)cc(Br)c1O", "11.9 µM"),
    ("CCOC(=O)c1cnc2n(c1=N)[C@H]1CCCC[C@@H]1N2", "> 100 µM"),
    ("C/C=C/C1=CC(=O)C(O)C1O (stereo unspecified)", "118 µM"),
    ("O=C1c2ccccc2S(=O)(=O)N1CSC(=S)N1CCCCC1", "> 100 µM"),
    ("COc1ccc(C(=O)c2cc(OC)c(OC)c(OC)c2)cc1/C=C/C(=O)c1ccc(OC)c(OC)c1", "> 100 µM"),
]
